Tested System: Solute carrier family 12 member 5 (Homo sapiens) (UniProt Q9H2X9)
Sequence (Q9H2X9 whole entry, looked up): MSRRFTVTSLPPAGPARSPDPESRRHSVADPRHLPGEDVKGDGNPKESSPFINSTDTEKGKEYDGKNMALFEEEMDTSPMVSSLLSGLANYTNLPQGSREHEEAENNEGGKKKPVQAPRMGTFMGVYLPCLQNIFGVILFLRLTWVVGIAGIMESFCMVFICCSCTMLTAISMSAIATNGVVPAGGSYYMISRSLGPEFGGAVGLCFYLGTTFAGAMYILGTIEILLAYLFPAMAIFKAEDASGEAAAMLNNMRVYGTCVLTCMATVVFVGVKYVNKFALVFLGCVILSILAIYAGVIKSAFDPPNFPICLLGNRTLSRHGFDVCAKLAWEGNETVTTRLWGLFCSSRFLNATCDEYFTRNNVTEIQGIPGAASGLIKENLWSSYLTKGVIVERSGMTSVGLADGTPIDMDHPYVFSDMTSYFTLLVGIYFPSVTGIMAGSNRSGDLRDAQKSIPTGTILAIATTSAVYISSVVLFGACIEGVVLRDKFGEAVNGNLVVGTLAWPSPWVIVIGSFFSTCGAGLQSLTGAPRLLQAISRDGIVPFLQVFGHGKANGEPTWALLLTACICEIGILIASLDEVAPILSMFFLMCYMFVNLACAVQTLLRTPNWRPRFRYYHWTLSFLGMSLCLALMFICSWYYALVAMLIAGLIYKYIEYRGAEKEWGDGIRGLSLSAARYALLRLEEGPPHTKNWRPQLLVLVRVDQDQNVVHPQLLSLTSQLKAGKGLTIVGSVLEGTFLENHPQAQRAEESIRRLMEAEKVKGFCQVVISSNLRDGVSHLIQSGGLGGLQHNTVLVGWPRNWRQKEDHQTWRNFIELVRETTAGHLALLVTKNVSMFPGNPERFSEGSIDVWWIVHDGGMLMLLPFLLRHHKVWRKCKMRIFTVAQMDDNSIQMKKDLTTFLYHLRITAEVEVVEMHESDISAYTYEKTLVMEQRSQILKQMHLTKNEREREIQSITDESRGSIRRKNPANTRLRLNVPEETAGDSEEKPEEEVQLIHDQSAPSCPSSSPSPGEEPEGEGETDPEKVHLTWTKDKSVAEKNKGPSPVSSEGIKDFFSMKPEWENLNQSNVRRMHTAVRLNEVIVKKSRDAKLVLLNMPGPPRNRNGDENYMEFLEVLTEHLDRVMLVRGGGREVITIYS
Measurement Description: modulation of human KCC2 ion transport – cell-based, HEK293 KCC2, FluoZin-2 fluorescence, MLSMR, primary screen (AID 1456);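 further: slope of fluorescence scaled to starting intensity during 10 to 20 s after thallium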
Test Context: KCC2 cells, thallium flux FluoZin-2 fluorescence; at 10 µM
About 4,100 (2.2%) of roughly 190,000 compounds were called active. Many of the other results were omitted from the sample, so actives are more common in it than they were.
B-score of Tl+ flux slope (higher = more flux/activation; lower = inhibition) vs -0.6: at or above is 1, below is -1.

# count of solved cases: 5
compound=Cc1cc([N+](=O)[O-])nn1Cc1ccc(F)cc1 assigned_class=-1
compound=c1ccc(-c2nnc(SCc3nc4ccccc4[nH]3)o2)cc1 assigned_class=-1
compound=Oc1ccc(-c2nnc(Nc3ccccc3)c3ccccc23)cc1 assigned_class=-1
compound=O=C(O)c1ccccc1-c1ccccc1C(=O)Nc1cccc2ccccc12 assigned_class=1
compound=COc1ccccc1CNC(=O)Cn1c(=O)oc2cc(Cl)ccc21 assigned_class=1

Ask | In plain terms: is recorded B-score of Tl+ flux slope (higher = more flux/activation; lower = inhibition) at least -0.6 for c1ccc2c(C[n+]3csc4ccccc43)cccc2c1 ?
Reply | 1

Ask | In plain terms: is recorded B-score of Tl+ flux slope (higher = more flux/activation; lower = inhibition) at least -0.6 for O=C(Nc1cc(C(F)(F)F)ccc1Cl)C(=O)N1CCCCC1 ?
Reply | 1

Ask | In plain terms: is recorded B-score of Tl+ flux slope (higher = more flux/activation; lower = inhibition) at least -0.6 for CC(C)C1Nc2c(C(=O)O)cccc2C(Nc2ccccc2C(=O)O)C1(C)C (centres undefined) ?
Reply | -1

----------
Tested System: Solute carrier family 12 member 5 (Homo sapiens) (UniProt Q9H2X9)
Measurement Description: modulation of human KCC2 ion transport – cell-based, HEK293 KCC2, FluoZin-2 fluorescence, MLSMR, primary screen (AID 1456);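 further: slope of fluorescence scaled to starting intensity during 10 to 20 s after thallium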
Test Context: KCC2 cells, thallium flux FluoZin-2 fluorescence; at 10 µM
About 4,100 (2.2%) of roughly 190,000 compounds were called active. Shown is part of a subset that was picked to be rich in actives.
Measured Endpoint: B-score of Tl+ flux slope (higher = more flux/activation; lower = inhibition)
Response field accepts a number only; no unit should be typed.

Look over these answered cases.
compound=COc1ccccc1/C=C/C=N/n1c(-c2ccc(Cl)cc2Cl)n[nH]c1=S tested_system="Solute carrier family 12 member 5 (Homo sapiens) (UniProt Q9H2X9)" result_number=11.5
compound=Cn1cnc([N+](=O)[O-])c1Sc1n[nH]c(N)n1 tested_system="Solute carrier family 12 member 5 (Homo sapiens) (UniProt Q9H2X9)" result_number=0.197
compound=O=C(CN1CCN(Cc2ccccc2)CC1)NC(c1ccccc1)c1ccccc1 tested_system="Solute carrier family 12 member 5 (Homo sapiens) (UniProt Q9H2X9)" result_number=-2.1

Okay, now this compound:
Ask | Which B-score of Tl+ flux slope (higher = more flux/activation; lower = inhibition) value belongs to CCCCOc1ccc(CON(C(C)=O)C(C)=O)cc1Cl ?
Reply | 0.181

----------
Tested System: Solute carrier family 12 member 5 (Homo sapiens)
Measurement Description: modulation of human KCC2 ion transport – cell-based, HEK293 KCC2, FluoZin-2 fluorescence, MLSMR, primary screen (AID 1456);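 further: slope of fluorescence scaled to starting intensity during 10 to 20 s after thallium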
Test Context: KCC2 cells, thallium flux FluoZin-2 fluorescence; at 10 µM
About 4,100 (2.2%) of roughly 190,000 compounds were called active.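 How the source made its calls: active means thallium flux slope and its plate-corrected score both differing from the plate sample mean at a set confidence after two filtering rounds, in either direction; inactive means the rest.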 Many of the other results were omitted from the sample, so actives are more common in it than they were.
# valid calls are active, inactive; nothing else

molecule=CC(C)(C)Cc1nnc(NC(=O)c2cc(-c3ccccc3)nc3ccccc23)s1 assigned_class=inactive
molecule=CCCCN1Cc2c(nc3cc(-c4ccccc4)[nH]n3c2=O)C1=O assigned_class=inactive
molecule=O=C(Nc1nnc(CCN2CCCCC2)s1)c1cccc(Cl)c1 assigned_class=inactive
molecule=Cc1nc(SCc2ccc(F)cc2)c([N+](=O)[O-])[nH]1 assigned_class=active
molecule="O=C(NCc1ccc(F)cc1)C1CCC(CNc2c(N3CCOCC3)c(=O)c2=O)CC1 (stereo not drawn)" assigned_class=inactive
molecule="O=C(CCCn1c(SCC(=O)c2ccccc2)nc2ccccc2c1=O)NCC1CCCO1 (stereo not drawn)" assigned_class=inactive

Ask | For O=C(O)C(F)(F)C(NCc1ccccc1)c1ccccc1 (stereo not drawn) , what call appears in the results of this test?
Reply | inactive

Ask | For COC(=O)CSc1ncnc2c1cnn2-c1ccc(C)cc1C , what call appears in the results of this test?
Reply | inactive

Ask | For CCOC(=O)C1CCN(c2c(Nc3cc(C)cc(C)c3)c(=O)c2=O)CC1 , what call appears in the results of this test?
Reply | inactive

Ask | For CC(O)c1nc2c(c(=O)n(C)c(=O)n2C)n1C (stereo not drawn) , what call appears in the results of this test?
Reply | inactive

Ask | For CCN(CC)CCCN=C(N)N , what call appears in the results of this test?
Reply | inactive
